Values were extracted from ChEMBL document CHEMBL3885861.

- Species on record: Rattus norvegicus
- METHOD SUMMARY: Open TG-GATES - Regimen: Single
- Type: toxicity, organism-based, Sprague-Dawley
- Set-up: regimen Single, gender Male, age 6 weeks
- CONDITIONS: in vivo, po, 0 mg/kg, 3 h, tissue Plasma, route gavage, dose level Control
MEASURED METRIC: GLC (mg/dL)
Unit mg/dL implied. Number only.

For orientation, consider the following solved cases.
COc1cc([C@@H]2c3cc4c(cc3[C@@H](O[C@@H]3O[C@@H]5CO[C@@H](C)O[C@H]5[C@H](O)[C@H]3O)[C@H]3COC(=O)[C@H]23)OCO4)cc(OC)c1O [ETOPOSIDE]
197.6
CN1C(C(=O)Nc2ccccn2)=C(O)c2sc(Cl)cc2S1(=O)=O
197.2
CN(C)[C@@H]1C(O)=C(C(N)=O)C(=O)[C@@]2(O)C(O)=C3C(=O)c4c(O)cccc4[C@@](C)(O)[C@H]3C[C@@H]12
187.8
CC(=O)Nc1nnc(S(N)(=O)=O)s1 [ACETAZOLAMIDE]
187.4

So for CC(CN1c2ccccc2Sc2ccccc21)N(C)C (stereo not given) , the logged GLC turned out to be 190.4

----------
Overview of reported PT across a group of compounds:
- Species on record: Rattus norvegicus
- METHOD SUMMARY: Open TG-GATES - Regimen: Daily Repeat
- Type: toxicity, organism-based, Sprague-Dawley
- Parameters: regimen Daily Repeat, gender Male, age 6 weeks
- CONDITIONS: in vivo, po, 0 mg/kg, […], tissue Blood, route gavage, dose level Control, time 14 day
Could you give me the number in s? Just the number is fine.

Take a look at these entries with their results.
CC(=O)Nc1nnc(S(N)(=O)=O)s1 [ACETAZOLAMIDE]
16.5
C#C[C@]1(O)CC[C@H]2[C@@H]3CCC4=Cc5oncc5C[C@]4(C)[C@H]3CC[C@@]21C
15.3
Clc1c(Cl)c(Cl)c(Cl)c(Cl)c1Cl
11.9

Sure, the documented PT for `CN(C)[C@@H]1C(O)=C(C(N)=O)C(=O)[C@@]2(O)C(O)=C3C(=O)c4c(O)cccc4[C@@](C)(O)[C@H]3C[C@@H]12` is 11.7

Quick note, PT for `CCOC(=O)[C@H](CCc1ccccc1)N[C@@H](C)C(=O)N1CCC[C@H]1C(=O)O` landed at 11.4

response.value for CC(CN1c2ccccc2Sc2ccccc21)N(C)C (centres undefined) (field: PT) = 16

Recorded PT (compound `Cc1cccc(Nc2ccccc2C(=O)O)c1C` ): 12.1

Notebook: C1CCC(C(CC2CCCCN2)C2CCCCC2)CC1 (centres undefined) , PT read as 16.2

Reported PT of `CN1C(C(=O)Nc2ccccn2)=C(O)c2sc(Cl)cc2S1(=O)=O` : 11.5

----------
- Species on record: Rattus norvegicus
- METHOD SUMMARY: Open TG-GATES - Regimen: Single
- Format: toxicity, organism-based, Sprague-Dawley
- Design: regimen Single, gender Male, age 6 weeks
- CONDITIONS: in vivo, po, 0 mg/kg, 6 h, tissue Blood, route gavage, dose level Control
MEASURED METRIC: MCHC (%)
Lab book: enter the figure in %, no units written.

C1CCC(C(CC2CCCCN2)C2CCCCC2)CC1 (centres undefined)
33.6

Memo: `CCOC(=O)[C@H](CCc1ccccc1)N[C@@H](C)C(=O)N1CCC[C@H]1C(=O)O` , reported MCHC: 33

Lookup result for COc1cc([C@@H]2c3cc4c(cc3[C@@H](O[C@@H]3O[C@@H]5CO[C@@H](C)O[C@H]5[C@H](O)[C@H]3O)[C@H]3COC(=O)[C@H]23)OCO4)cc(OC)c1O [ETOPOSIDE] ; measured MCHC: 33.7

// field: MCHC; key: `Clc1c(Cl)c(Cl)c(Cl)c(Cl)c1Cl` ; value = 35.3

# MCHC of `CN(C)[C@@H]1C(O)=C(C(N)=O)C(=O)[C@@]2(O)C(O)=C3C(=O)c4c(O)cccc4[C@@](C)(O)[C@H]3C[C@@H]12` = 33.4

Record summary for `Cc1cccc(Nc2ccccc2C(=O)O)c1C` : reported MCHC = 35.5

Per the records, this compound ( `CN1C(C(=O)Nc2ccccn2)=C(O)c2sc(Cl)cc2S1(=O)=O` ) has MCHC equal to 33.6

Reported MCHC for CC(CN1c2ccccc2Sc2ccccc21)N(C)C (centres undefined) was 33.4

`C#C[C@]1(O)CC[C@H]2[C@@H]3CCC4=Cc5oncc5C[C@]4(C)[C@H]3CC[C@@]21C` yielded MCHC of 32.8
